These entries and their values trace back to patent US20250289905A1.

- EXPERIMENTAL_SYSTEM: T1, rat-derived WARS1 recombinant protein (rat, UniProt Q6P7B0 1-481, limits assumed)
- T1 construct: Recombinant, His-tagged (detected with anti-His tag antibody); construct not described; also called rat WARS1
- T1 sequence (looked up): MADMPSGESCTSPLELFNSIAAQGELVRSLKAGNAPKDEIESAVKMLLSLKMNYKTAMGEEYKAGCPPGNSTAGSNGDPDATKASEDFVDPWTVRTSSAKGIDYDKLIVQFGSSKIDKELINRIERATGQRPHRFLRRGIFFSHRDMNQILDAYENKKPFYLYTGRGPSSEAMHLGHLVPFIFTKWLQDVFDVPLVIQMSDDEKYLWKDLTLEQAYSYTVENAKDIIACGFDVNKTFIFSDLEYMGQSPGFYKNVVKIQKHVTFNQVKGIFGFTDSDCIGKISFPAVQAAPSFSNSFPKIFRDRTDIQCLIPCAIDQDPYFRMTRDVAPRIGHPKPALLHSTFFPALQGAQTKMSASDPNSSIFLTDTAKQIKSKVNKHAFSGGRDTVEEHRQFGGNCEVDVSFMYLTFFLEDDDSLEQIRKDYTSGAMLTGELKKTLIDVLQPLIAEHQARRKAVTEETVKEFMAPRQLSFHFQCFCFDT
- ASSAY_EXPLANATION: direct ELISA
QUANTITY_MEASURED: Kd

Challenge: Quote Kd reported for H54K (antibody, V domains shown, L-CDR2 variant of GKB101; also called H54K antibody; M105A) VH: EVQLLESGGGLVQPGGSLRLSCAASGFTFSSYDMSWVRQAPGKGLEWVSAISSGGSSIYYADSVKGRFTISRDNSKNTLYLQMNSLRAEDTAVYYCARDVAWDMLGDFDYWGQGTLVTVSS VL: QSVLTQPPSASGTPGQRVTISCTGSSSNIGSNYVYWYQQLPGTAPKLLIYANSKRPSGVPDRFSGSKSGTSASLAISGLRSEDEADYYCGAWDDSLSAYVFGGGTKLTVLT please.
Response given: ~1 pM
